Each recorded value in this set is attributed to ChEMBL document CHEMBL1133454.

Target: Gonadotropin-releasing hormone receptor (Rattus norvegicus)
Sequence (P30969 whole entry): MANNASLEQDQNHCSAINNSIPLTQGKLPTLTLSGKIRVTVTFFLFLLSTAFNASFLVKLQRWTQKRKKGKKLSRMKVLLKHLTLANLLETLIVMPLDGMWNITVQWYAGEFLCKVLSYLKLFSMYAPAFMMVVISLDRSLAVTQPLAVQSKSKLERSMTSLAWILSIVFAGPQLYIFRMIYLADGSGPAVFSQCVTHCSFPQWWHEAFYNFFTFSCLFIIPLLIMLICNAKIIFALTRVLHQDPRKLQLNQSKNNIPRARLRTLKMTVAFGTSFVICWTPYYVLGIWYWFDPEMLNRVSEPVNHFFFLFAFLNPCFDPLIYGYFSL
Test: Inhibition constant for the displacement of specific binding of [125I][D-Lys6]-GnRH (Kd=177 pM) bound to rat pituitary membranes
Type: cell membranes, Membrane
Square brackets hold non-standard residues; d marks the D form. Peptide text beside a SMILES is read from it. * marks the point of attachment. X1 = CC(C)C[C@@H](C(=O)*)N1C(=O)N[C@H](Cc2c[nH]c3ccccc23)C1=O
assay-endpoint: Ki (µM)
Unit µM implied. Number only.

Prompt: Value lookup for Ki; key = CC[C@H](C)[C@H](N)C(=O)N[C@H](C(=O)N[C@@H](Cc1c[nH]c2ccccc12)C(=O)N[C@H](Cc1c[nH]c2ccccc12)C(=O)N[C@@H](CC(C)C)C(=O)N[C@@H](CC(=O)O)C(=O)O)[C@@H](C)CC
Completion: 0.7

Prompt: I am curious: what Ki value has been reported for CC[C@H](C)[C@@H]1NC(=O)[C@H](CC(=O)O)NC(=O)[C@H](CC(C)C)NC(=O)[C@@H](Cc2c[nH]c3ccccc23)NC(=O)[C@H](Cc2c[nH]c3ccccc23)NC(=O)[C@H]([C@@H](C)CC)NC1=O ?
Completion: 0.7

Prompt: Give the measured Ki of CC[C@H](C)[C@H](NC(=O)[C@H](CC(=O)O)NC(=O)[C@H](CC(C)C)NC(=O)[C@H](N)Cc1c[nH]c2ccccc12)C(=O)N[C@H](C(=O)N[C@@H](Cc1c[nH]c2ccccc12)C(=O)O)[C@@H](C)CC .
Completion: 8

Prompt: Report Ki for CC[C@H](C)[C@H](NC(=O)[C@H](CCCNC(=N)N)NC(=O)[C@H](CC(C)C)NC(=O)[C@@H](Cc1c[nH]c2ccccc12)NC(C)=O)C(=O)N[C@H](C(=O)N[C@@H](Cc1c[nH]c2ccccc12)C(=O)O)[C@@H](C)CC please.
Completion: 2

Prompt: What Ki value was documented for this molecule, CC[C@H](C)[C@H](NC(=O)[C@H](CC(=O)O)NC(=O)[C@H](CC(C)C)NC(=O)[C@@H](Cc1c[nH]c2ccccc12)NC(C)=O)C(=O)N[C@H](C(=O)N[C@@H](Cc1c[nH]c2ccccc12)C(=O)O)[C@@H](C)CC (Ac-[dW]LDIIW-OH) ?
Completion: 1.9

Prompt: Consider the molecule CC[C@H](C)[C@H](N)C(=O)N[C@H](C(=O)N[C@@H](Cc1c[nH]c2ccccc12)C(=O)N[C@H](Cc1c[nH]cn1)C(=O)N[C@@H](CC(C)C)C(=O)N[C@@H](CC(=O)O)C(=O)O)[C@@H](C)CC and give its measured Ki.
Completion: 0.5

Prompt: Which measured Ki value corresponds to CC[C@H](C)[C@H](N)C(=O)N[C@H](C(=O)N[C@@H](Cc1c[nH]c2ccccc12)C(=O)N[C@H](Cc1ccccc1)C(=O)N[C@@H](CC(C)C)C(=O)N[C@@H](CC(=O)O)C(=O)O)[C@@H](C)CC ?
Completion: 8

Prompt: Find the recorded Ki belonging to CC[C@H](C)[C@H](N)C(=O)N[C@H](C(=O)N[C@@H](Cc1c[nH]c2ccccc12)C(=O)N[C@@H](Cc1c[nH]c2ccccc12)C(=O)N[C@@H](CC(C)C)C(=O)N[C@@H](CC(=O)O)C(=O)O)[C@@H](C)CC and report it.
Completion: 4

Prompt: I am curious: what Ki value has been reported for CC[C@H](C)[C@@H]1NC(=O)CSC[C@@H](C(=O)O)NC(=O)[C@H](CC(C)C)NC(=O)[C@@H](Cc2c[nH]c3ccccc23)NC(=O)[C@H](Cc2c[nH]c3ccccc23)NC(=O)[C@H]([C@@H](C)CC)NC1=O ?
Completion: 0.32

Prompt: Which Ki reading was recorded for the molecule CC[C@H](C)[C@H](NC(=O)[C@H](CC(=O)O)NC(=O)[C@H](CC(C)C)N1C(=O)N[C@H](Cc2c[nH]c3ccccc23)C1=O)C(=O)N[C@H](C(=O)N[C@@H](Cc1c[nH]c2ccccc12)C(=O)O)[C@@H](C)CC (X1-DIIW-OH) ?
Completion: 0.23
